Reported inhibition at 0.1 µM values are given for each entry in this list.
- Test system: vessel development of the FLK1-GFP transgenic danio rerio
- test: Inhibition test on vascular development of Danio rerio
- Type: in vivo
- condition.summary: Danio rerio; 100 nM, after 24 hours, n = 5; read-out: inhibition rate on the development of vertebral vessel
The reply should be a number in %, with the unit left off.

Solved entries:
                                   compound                         system_under_test  unit_spec  assay_value
0  Nc1nccc(Oc2ccc3c(C(=O)Nc4cccc(C(F)(F)F)c4)cccc3n2)n1  vessel development of the FLK1-GFP transgenic danio rerio          %           50
1  O=C(Nc1cccc(C(F)(F)F)c1)c1cccc2nc(Oc3ncnc4c3CNC4)ccc12  vessel development of the FLK1-GFP transgenic danio rerio          %            0
2  Nc1cc(Oc2ccc3c(C(=O)Nc4cccc(C(F)(F)F)c4)cccc3n2)ncn1  vessel development of the FLK1-GFP transgenic danio rerio          %           10
3  CNCc1cc(Oc2ccc3c(C(=O)Nc4cccc(C(F)(F)F)c4)cccc3n2)ncn1  vessel development of the FLK1-GFP transgenic danio rerio          %            0
4  Cc1ccc(Nc2nccc(N(C)c3ccc4c(C)n(C)nc4c3)n2)cc1S(N)(=O)=O [Compound 130B, Pazopanib, reference compound]  vessel development of the FLK1-GFP transgenic danio rerio          %            0

# context switch: different compound, same inhibition at 0.1 µM
Problem: # get_value(readout='inhibition at 0.1 µM', item= O=C(Nc1cccc(C(F)(F)F)c1)c1cccc2nc(Oc3ncnc4c3CCNC4)ccc12 )
Result: 0

====

- System: vessel development of the FLK1-GFP transgenic danio rerio
- test: Inhibition test on vascular development of Danio rerio
- Assay type: in vivo
- condition.summary: Danio rerio; 1 μM, after 24 hours, n = 5; read-out: inhibition rate on the development of vertebral vessel
measure: inhibition at 1 µM (%)
The reply should be a number in %, with the unit left off.

Problem: # get_value(readout='inhibition at 1 µM', item= Nc1nccc(Oc2ccc3c(C(=O)Nc4cccc(C(F)(F)F)c4)cccc3n2)n1 [Compound 2-2] )
Result: 100

Problem: # get_value(readout='inhibition at 1 µM', item= O=C(Nc1cccc(C(F)(F)F)c1)c1cccc2nc(Oc3ncnc4c3CNC4)ccc12 [Compound 2-5] )
Result: 0

Problem: # get_value(readout='inhibition at 1 µM', item= Nc1cc(Oc2ccc3c(C(=O)Nc4cccc(C(F)(F)F)c4)cccc3n2)ncn1 [Compound 2-1] )
Result: 50

Problem: # get_value(readout='inhibition at 1 µM', item= CNCc1cc(Oc2ccc3c(C(=O)Nc4cccc(C(F)(F)F)c4)cccc3n2)ncn1 [Compound 2-4] )
Result: 0

Problem: # get_value(readout='inhibition at 1 µM', item= Cc1ccc(Nc2nccc(N(C)c3ccc4c(C)n(C)nc4c3)n2)cc1S(N)(=O)=O [Compound 130B, Pazopanib, reference compound] )
Result: 0

Problem: # get_value(readout='inhibition at 1 µM', item= O=C(Nc1cccc(C(F)(F)F)c1)c1cccc2nc(Oc3ncnc4c3CCNC4)ccc12 [Compound 2-3] )
Result: 0
